measurement-target: Ba/F3 BCR-ABL1 I502L (Homo sapiens, UniProt P00519+P11274, I502L)
Construct: BCR (N-terminal fusion partner of the oncoprotein)
Sequence (P00519 28-1130 I502L limits assumed, one chain of several): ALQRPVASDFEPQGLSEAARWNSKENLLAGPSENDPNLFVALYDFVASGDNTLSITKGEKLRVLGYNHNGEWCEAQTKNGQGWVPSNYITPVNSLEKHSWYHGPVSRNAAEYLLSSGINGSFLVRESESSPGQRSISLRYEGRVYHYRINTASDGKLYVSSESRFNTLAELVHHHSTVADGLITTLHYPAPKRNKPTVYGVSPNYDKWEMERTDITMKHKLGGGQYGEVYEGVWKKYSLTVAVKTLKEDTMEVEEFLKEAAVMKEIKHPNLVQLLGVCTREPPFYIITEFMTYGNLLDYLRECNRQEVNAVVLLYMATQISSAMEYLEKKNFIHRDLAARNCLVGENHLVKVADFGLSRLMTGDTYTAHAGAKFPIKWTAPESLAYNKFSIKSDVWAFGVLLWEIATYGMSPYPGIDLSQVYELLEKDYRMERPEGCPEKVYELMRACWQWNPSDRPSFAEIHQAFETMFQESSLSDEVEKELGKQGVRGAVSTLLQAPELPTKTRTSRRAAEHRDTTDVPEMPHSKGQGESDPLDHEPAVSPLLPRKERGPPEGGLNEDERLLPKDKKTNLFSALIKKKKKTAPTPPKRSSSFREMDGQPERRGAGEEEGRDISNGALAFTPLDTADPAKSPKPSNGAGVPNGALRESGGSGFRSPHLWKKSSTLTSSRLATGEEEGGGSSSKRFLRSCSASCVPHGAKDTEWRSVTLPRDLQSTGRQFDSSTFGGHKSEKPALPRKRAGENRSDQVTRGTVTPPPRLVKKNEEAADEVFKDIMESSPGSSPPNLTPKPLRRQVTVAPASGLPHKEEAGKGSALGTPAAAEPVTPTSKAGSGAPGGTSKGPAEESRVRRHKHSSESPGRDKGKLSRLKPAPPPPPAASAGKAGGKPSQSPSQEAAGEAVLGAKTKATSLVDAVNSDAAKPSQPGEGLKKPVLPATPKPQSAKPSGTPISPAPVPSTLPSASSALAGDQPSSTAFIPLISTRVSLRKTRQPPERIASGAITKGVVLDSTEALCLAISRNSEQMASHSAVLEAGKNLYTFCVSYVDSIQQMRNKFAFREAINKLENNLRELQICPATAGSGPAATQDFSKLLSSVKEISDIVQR
test-summary: Cell growth inhibitory activity assay (CellTiter-Glo), Ba/F3 BCR-ABL1 I502L cells
run-conditions: 72 h, CTG cell viability
Procedure: In this assay, the Celltiter-Glo (CTG) kit provided by Promega was used, and it is a homogeneous cell viability assay method. The cell viability of cultured cells was measured by quantifying ATP. […] The steps of cell viability assay are as follows: • a) Cells in logarithmic growth phase were collected. Cell suspension was prepared and the cells were counted. […]
pIC50: −log10 of the molar value.
readout-type: pIC50

Record request: pIC50 value, item C[C@@H]1COCc2nc3cc(C(=O)Nc4ccc(OC(F)(F)Cl)cc4)cc(-c4cnccn4)c3n21 [T-115]
6.00 to 7.30

Which pIC50 is reported for this compound? C[C@@H]1COCc2nc3cc(C(=O)Nc4ccc(OC(F)(F)Cl)cc4)cc(-c4cnc5c(c4)-c4nn(-c6cncnc6)cc4C5)c3n21 [T-66]
6.00 to 7.30

// lookup pIC50 for C[C@@H]1COCc2nc3cc(C(=O)Nc4ccc(OC(F)(F)Cl)cc4)cc(-c4cnc5c(c4)-c4nn(S(C)(=O)=O)cc4C5)c3n21 [T-42]
6.00 to 7.30

Give its pIC50 value. Item: CN1Cc2ncc(-c3cc(C(=O)Nc4ccc(OC(F)(F)Cl)cc4)cc4c3C(C)(C)C(=O)N4)cc2C1=O [T-7]
6.00 to 7.30

Which pIC50 is reported for this compound? [2H]C([2H])([2H])C([2H])(n1cc2c(n1)-c1cc(-c3cc(C(=O)Nc4ccc(OC(F)(F)Cl)cc4)cc4nc5n(c34)[C@H](C)COC5)cnc1C2)C([2H])([2H])[2H] [T-54]
7.30 to 8.30

What value of pIC50 has been recorded for this entry: C[C@@H]1COCc2nc3cc(C(=O)Nc4ccc(OC(F)(F)Cl)cc4)cc(-c4cnc5c(c4)-c4nn(-c6nccc(C#N)n6)cc4C5)c3n21 [T-69-B]
≥ 8.30

# get_value(readout='pIC50', item= C[C@@H]1COCc2nc3cc(C(=O)Nc4ccc(OC(F)(F)Cl)cc4)cc(-c4cnc5c(c4)-c4n[nH]cc4C5)c3n21 [T-3] )
7.30 to 8.30

I am curious: what pIC50 value has been reported for C[C@@H]1CCSc2nc3cc(C(=O)Nc4ccc(OC(F)(F)Cl)cc4)cc(-c4cnc5c(c4)C(=O)N(C)C5)c3n21 [T-20] ?
7.30 to 8.30

Suppose we examine the compound C[C@@H]1COCc2nc3cc(C(=O)Nc4ccc(OC(F)(F)Cl)cc4)cc(-c4cnc5c(c4)-c4nn(C6COC6)cc4C5)c3n21 [T-52] ; what pIC50 value has been reported?
7.30 to 8.30

Look up pIC50 for this compound: C[C@@H]1COCc2nc3cc(C(=O)Nc4ccc(OC(F)(F)Cl)cc4)cc(-c4cnc5c(c4)C(=O)N(C)C5)c3n21 [T-21]
7.30 to 8.30
